tested on: MOLM14; assay: cell viability relative to vehicle control; higher = less cytotoxic; conditions: 10 µM; SRSF2 genotype: SRSF2 P95H/wt;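 further: after 48 h exposure read by CellTiter-Glo luminescence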
Structures can show the parent of a compound that is named as a salt.
assay readout: cell viability (%)
Answers are plain numbers, in %.

Worked cases, cell viability given:
Prompt: Look up cell viability for this molecule: O=C(O)c1cn(-c2ccc(F)cc2)c2cc(N3CCNCC3)c(F)cc2c1=O [Sarafloxacin HCl]
Completion: 103

Prompt: Would you mind doing Nc1nccc(Oc2ccc(NC(=O)c3c[nH]cc(-c4ccc(F)cc4)c3=O)cc2F)c1Cl as well?
Completion: 19.9

Prompt: Would you mind doing CN1CCN(S(=O)(=O)c2ccc(-c3cnc(N)c(C(=O)Nc4cccnc4)n3)cc2)CC1 as well?
Completion: 40.6

Further cases:
Prompt: Look up cell viability for this molecule: O=C(O)[C@H]1O[C@@H](Oc2cc3oc(-c4ccccc4)cc(=O)c3c(O)c2O)[C@H](O)[C@@H](O)[C@@H]1O
Completion: 98.7

---

test system: MOLM14; assay: cell viability relative to vehicle control; higher = less cytotoxic; conditions: 10 µM; SRSF2 genotype: SRSF2 wt/wt
assay readout: cell viability (%)
One number for each entry, in %.

Worked cases, cell viability given:
Prompt: Look up cell viability for this molecule: Cc1ccc(Nc2c(F)cccc2Cl)c(CC(=O)O)c1 [Lumiracoxib (COX-189)]
Completion: 93.4

Prompt: Would you mind doing CC(=O)O[C@]1(C)CC[C@@]23C[C@H]1C(C)(C)[C@@H]2CC[C@H]3C [Cedryl acetate] as well?
Completion: 106

Prompt: Would you mind doing C=CC(=O)Nc1cc2c(Nc3ccc(F)c(Cl)c3)ncnc2cc1OCCCN1CCOCC1 [CI-1033 (Canertinib)] as well?
Completion: 15.9

Prompt: Would you mind doing CN1C(=O)c2sccc2N(C)c2nc(Nc3ccc(S(N)(=O)=O)cc3)ncc21 as well?
Completion: 3.55

Prompt: Would you mind doing Cc1cc(C(N)=O)ccc1-n1c(CCC(=O)O)ccc1-c1ccc(-n2ccnc2)cc1 as well?
Completion: 108

Go through the items and report each one's cell viability.
1. CC(=O)O[C@H]1CC/C(C)=C/CC/C(C)=C/C[C@]2(C(C)C)CC[C@@]1(C)O2 [Incensole acetate]
2. CC(C)=CCC[C@](C)(O)[C@H]1CC[C@]2(C)[C@@H]1[C@H](O)C[C@@H]1[C@@]3(C)CC[C@H](O)C(C)(C)[C@@H]3[C@@H](O)C[C@]12C [(20S)-Protopanaxatriol]
3. O=C(NC1CC1)c1cc(-c2cccs2)on1 [Isoxazole 9 (ISX-9)]
4. CC(C)CCCC(C)C1CCC2C3CCC4CC(O)CCC4(C)C3CCC12C (configuration not stated) [Dihydrocholesterol]
5. NCCc1c[nH]cn1 [Histamine]
6. COC(=O)c1ccc2c(C(=Nc3ccc(N(C)C(=O)CN4CCN(C)CC4)cc3)c3ccccc3)c(O)[nH]c2c1 [Nintedanib (BIBF 1120)]

Completion:
1. 67.7
2. 106
3. 35.5
4. 97.6
5. 63.6
6. 4.94

Go through the items and report each one's cell viability.
1. CCc1cccc(CC)c1NC(=O)N1Cc2[nH]nc(NC(=O)c3ccc(N4CCN(C)CC4)cc3)c2C1
2. O=c1[nH]c(=O)n([C@H]2C[C@H](O)[C@@H](CO)O2)cc1C(F)(F)F [Trifluridine (Viroptic)]
3. C[C@H](CCC(=O)O)[C@H]1CC[C@H]2[C@@H]3C[C@H](O)[C@@H]4C[C@H](O)CC[C@]4(C)[C@H]3CC[C@]12C [Hyodeoxycholic acid (HDCA)]
4. Cc1ccnc(NS(=O)(=O)c2ccc(N)cc2)n1 [Sulfamerazine]
5. C=CC(=O)N1C[C@H](Nc2ncnc3[nH]ccc23)CC[C@@H]1C

Completion:
1: 13.4; 2: 18.8; 3: 97.5; 4: 107; 5: 93.8

Prompt: Look up cell viability for this molecule: CC=C(C)C(=O)O [Tiglic acid]
Completion: 109

---

tested on: K562; experiment: cell viability relative to vehicle control; higher = less cytotoxic; conditions: 10 µM; SRSF2 genotype: SRSF2 wt/wt
Structures can show the parent of a compound that is named as a salt.
Mark YES for cell viability under 90%, NO if at or over.

Prompt: Please indicate whether the reported cell viability of Cc1cc(CS(=O)(=O)c2ccccc2)cc(OCc2ccc(CN3CCC[C@@H]3CO)cc2)c1 is strictly below 90%.
Completion: NO

Prompt: Would you mind doing C[C@@H](Oc1ccc2[nH]nc(/C=C/c3cnn(CCO)c3)c2c1)c1c(Cl)cncc1Cl as well?
Completion: YES

Prompt: Would you mind doing Fc1ccc(C(c2ccc(F)cc2)N2CCN(C/C=C/c3ccccc3)CC2)cc1 [Flunarizine 2HCl] as well?
Completion: YES

Prompt: Would you mind doing COc1cc2c(cc1OC)CN(CCc1ccc(NC(=O)c3cc(OC)c(OC)cc3NC(=O)c3cnc4ccccc4c3)cc1)CC2 [Tariquidar] as well?
Completion: NO

Prompt: Would you mind doing Nc1nonc1C(=Nc1ccc(F)c(Cl)c1)NO as well?
Completion: NO

Prompt: Would you mind doing CC(C)(O)[C@H]1CC[C@@](C)(C2[C@@H](O)C[C@@]3(C)[C@@H]4C[C@H](O)C5C(C)(C)[C@@H](O)CCC56CC46CC[C@]23C)O1 (stereo partly drawn) [Cycloastragenol] as well?
Completion: NO

Prompt: Would you mind doing NNc1nncc2ccccc12 [Hydralazine hydrochloride] as well?
Completion: NO

Prompt: Would you mind doing CC1=C[C@H]2[C@@H](CC1)[C@H](C)CC[C@H]2[C@@H](C)C(=O)O [Dihydroartemisinic acid] as well?
Completion: NO

Prompt: Would you mind doing Oc1c(F)cc(-c2cnccc2-c2ccc(N3CCOCC3)cc2)cc1F as well?
Completion: NO

Prompt: Would you mind doing OC[C@H]1O[C@H](O[C@H]2[C@H](O)[C@@H](O)C(O)O[C@@H]2CO)[C@H](O)[C@@H](O)[C@@H]1O (mixture of isomers) [Maltose] as well?
Completion: NO

Prompt: Would you mind doing CC(C)=CCC/C(C)=C/C=O [Citral] as well?
Completion: NO

---

test system: MARIMO; test: cell viability relative to vehicle control; higher = less cytotoxic; conditions: 10 µM; SRSF2 genotype: SRSF2 P95H/wt
Structures can show the parent of a compound that is named as a salt.
Kindly supply the reported cell viability values for the records listed here.
Answers are plain numbers, in %.

Prompt: Look up cell viability for this compound: CC(C)N(CCCNC(=O)Nc1ccc(C(C)(C)C)cc1)C[C@H]1O[C@@H](n2ccc3c(N)ncnc32)[C@H](O)[C@@H]1O
Completion: 89.3

Prompt: Would you mind doing COc1cccc(C(N)=O)c1 [3-Methoxybenzamide] as well?
Completion: 104

Prompt: Would you mind doing O=S1(=O)CCN(CN2CCS(=O)(=O)NC2)CN1 [Taurolidine] as well?
Completion: 104

Go through the items and report each one's cell viability.
1. CCCCNc1cc(C(=O)O)cc(S(N)(=O)=O)c1Oc1ccccc1 [Bumetanide]
2. CCOC(=O)O[C@]1(C(=O)OCCl)CC[C@H]2[C@@H]3CCC4=CC(=O)C=C[C@]4(C)[C@H]3[C@@H](O)C[C@@]21C [Loteprednol etabonate]
3. Cc1cccc(-c2nn3c(c2-c2ccnc4ccc(C(N)=O)cc24)CCC3)n1
4. Cc1cc(NS(=O)(=O)c2ccc(N)cc2)nc(C)n1 [sulfaisodimidine]
5. OCCOCCN1CCN(C2=Nc3ccccc3Sc3ccccc32)CC1 [Quetiapine fumarate (Seroquel)]
6. O=C(c1ccc(F)cc1)C1CCN(CCn2c(=O)[nH]c3ccccc3c2=O)CC1 [Ketanserin (Vulketan Gel)]
7. C[C@@H]1[C@H](O)[C@@H](C)/C=C/C=C/C=C/C=C/C=C/C=C/C=C/[C@H](O[C@@H]2O[C@H](C)[C@@H](O)[C@H](N)[C@@H]2O)C[C@@H]2O[C@](O)(C[C@@H](O)C[C@@H](O)[C@H](O)CC[C@@H](O)C[C@@H](O)CC(=O)O[C@H]1C)C[C@H](O)[C@H]2C(=O)O [Amphotericin B]
8. Cn1cc(-c2ccc3nnc(C(F)(F)c4ccc5ncccc5c4)n3n2)cn1

Completion:
1: 96.5; 2: 92.1; 3: 104; 4: 106; 5: 85.8; 6: 102; 7: 110; 8: 102

Go through the items and report each one's cell viability.
1. NC(=O)c1cnccn1 [Pyrazinamide (Pyrazinoic acid amide)]
2. Clc1ccccc1C(c1ccccc1)(c1ccccc1)n1ccnc1 [Clotrimazole (Canesten)]

Completion:
1. 104
2. 81.5

Go through the items and report each one's cell viability.
1. CO/N=C(\C(=O)N[C@@H]1C(=O)N2C(C(=O)O)=CCS[C@H]12)c1csc(N)n1 [Ceftizoxime]
2. CNC(=O)c1cc(Oc2ccc(NC(=O)Nc3ccc(Cl)c(C(F)(F)F)c3)cc2)ccn1 [Sorafenib Tosylate]

Completion:
[96.1, 35.8]
